- Test system: CCRF-CEM leukemia
- experimental-details: NCI tumour cell line growth inhibition, 48 h
Below is a list of entries, each paired with its recorded TGI value.

Below, each entry is followed by its recorded TGI result.
CN1CCc2c(sc3ncn(N)c(=N)c23)C1	> 100 µM
COc1cc(OC)cc(C(=O)NC2=C(Cl)C(=O)c3ccccc3C2=O)c1	3.99 µM
Cc1cc(O)c2c3c1C(=O)Oc1c(CO)c(O)c(C(=O)O)c(c1O3)C=NN=Cc1c3c(c(CO)c(O)c1C(=O)O)OC(=O)c1c(C)cc(O)c(c1O3)C=NN=C2	> 1 µM
CC(C)(C)OC(=O)N1CCCC1=O	> 10 µM

Please fill in: TGI reported for CCN(CC)CCN1C=CC(C)C(C(=O)O)C1C(N)=O (stereo not given) = > 100 µM

Please fill in: TGI reported for N#Cc1c(N)nc(Nc2cccc3ccccc23)c(C#N)c1C#N = 6.05 µM

Please fill in: TGI reported for COc1ccc(/C=C/C(=O)c2sc(NC(=S)NC(=O)c3ccccc3F)nc2C)cc1OC = > 100 µM

Please fill in: TGI reported for CCCCNc1nc(N)nc(Nc2ccc(Br)cc2)c1N=O = > 100 µM

Please fill in: TGI reported for Cc1ccc(C2=C(c3ccc(C)cc3)C3(c4ccc(C)cc4)[C@@H](C#N)[C@H](C#N)C2(c2ccc(C)cc2)S3=O)cc1 (stereo not given in full) = > 100 µM

Please fill in: TGI reported for COc1cc(/C=N/c2nncs2)ccc1O = > 100 µM

====

Below is a list of entries, each paired with its recorded TGI value.
- System: MALME-3M melanoma
- experimental-details: NCI tumour cell line growth inhibition, 48 h

O=C1OC2C(O)COC2(O)C1(O)Cc1c[nH]c2ccccc12 (stereo unspecified)	> 100 µM
O=c1[nH]c(=S)[nH]c2c1C(c1ccc(Cl)cc1)c1c([nH]c(=S)[nH]c1=O)O2	> 100 µM
CC(C)(C)OC(=O)N1CCCC1=O	> 10 µM
O=C(O)CCCn1c(SCc2c(Cl)cccc2Cl)nc2ccsc2c1=O	> 100 µM
COC(=O)C12CCC(C(F)(F)C1=O)C2(C)C (stereo unspecified)	> 100 µM
Cc1cccc(C)c1NC(=O)C(=O)C(C#N)c1ccccc1Cl (stereo unspecified)	> 100 µM

Please fill in: TGI reported for Cc1noc(C)c1C1=CCCCc2ccccc21 = > 100 µM

Please fill in: TGI reported for O=C(CC1(O)C(=O)Nc2c(Cl)cc(Cl)cc21)c1ccco1 (stereo unspecified) = > 100 µM

Please fill in: TGI reported for COC1CC(C)(N)C(O)C(C)O1 (stereo unspecified) = > 100 µM

Please fill in: TGI reported for Cc1c(C(=O)O)n(-c2ccc(Cl)cc2)c2ncnc(N)c12 = 75.7 µM

Please fill in: TGI reported for CC(C)[C@]12O[C@H]1[C@@H]1O[C@]13[C@]1(O[C@H]1C[C@H]1C4=C(CC[C@@]13C)C(=O)OC4)[C@@H]2OC(=O)CN(C)C = 0.0733 µM

====

Below is a list of entries, each paired with its recorded TGI value.
- Tested on: MDA-N
- experimental-details: NCI tumour cell line growth inhibition, 48 h

Below, each entry is followed by its recorded TGI result.
O=C(/C=C/c1ccc(OCCSCCCCCCCCCCSCCOc2ccc(/C=C/C(=O)c3ccc(Cl)cc3)cc2)cc1)c1ccc(Cl)cc1	> 100 µM
CCCCCCc1nn2c(-c3ccncc3)nnc2s1	> 10 µM
N=C(N)SCCc1ccncc1	> 100 µM

Next, consider the following molecule.
Please fill in: TGI reported for CC(C)(C)OC(=O)N1CCCC1=O = > 10 µM

====

- Test system: MALME-3M melanoma
- experimental-details: NCI tumour cell line growth inhibition, 48 h
Below is a list of entries, each paired with its recorded TGI value.
Unit µM implied. Number only.

Known value: MALME-3M melanoma TGI of the molecule CC1CCC2(NC1)OC1CC3C4CCC5CC(OC6OC(CO)C(OC7OC(CO)C(O)C(OC8OCC(O)C(O)C8O)C7OC7OC(CO)C(O)C(O)C7O)C(O)C6O)CCC5(C)C4CCC3(C)C1C2C (stereo not drawn) equals 2.83

Known value: MALME-3M melanoma TGI of the molecule Cc1c2cnccc2c(C)c2c1c1cc(CO)ccc1n2C equals 1.18

Known value: MALME-3M melanoma TGI of the molecule C[C@@H](O)[C@H]1C(=O)N2C(C(=O)O)=C(SCCN=CN)C[C@H]12 equals 3.33

Known value: MALME-3M melanoma TGI of the molecule CC(C)NCC(O)c1cc(OCc2ccccc2)c(OCc2ccccc2)cc1NC(=O)CCC(=O)O (stereo not drawn) equals 28.6

Known value: MALME-3M melanoma TGI of the molecule N#CC1(C#N)C2=C(CCCC2)NC(c2ccc(Br)cc2)C1(C#N)C#N (stereo not drawn) equals 3.83

====

- Tested on: HCT-116 colon
- experimental-details: NCI tumour cell line growth inhibition, 48 h
readout-kind: TGI

Known value: HCT-116 colon TGI of the compound CCOP(=O)(OCC)/C(C#N)=C/c1cnc(C)[nH]1 equals > 100 µM

Known value: HCT-116 colon TGI of the compound CN=C(NN)NS(=O)(=O)c1cc(C)c(Cl)cc1S equals > 100 µM

====

- System: NCI-H522 lung
- experimental-details: NCI tumour cell line growth inhibition, 48 h
Below is a list of entries, each paired with its recorded GI50 value.

Below, each entry is followed by its recorded GI50 result.
COC(=O)[C@@H](C[C@H](Cc1ccccc1)NC(=O)c1csc([C@@H](C[C@H](C(C)C)N(C)C(=O)[C@@H](NC(=O)[C@H]2CCCCN2C)C(C)C)OC(C)=O)n1)NC(=O)OCc1ccccc1	< 0.833 nM
COC(=O)C(N)CSC(c1ccccc1)(c1ccccc1)c1ccccc1 (centres undefined)	334 nM
COc1cccc(/C=N/Nc2ncnc3c2cnn3-c2cccc(OC)c2)c1	> 25000 nM
O[N+]1=CC=CCC1=S.On1ccccc1=S.[Zn]	373 nM
Cn1cc(C2=C(c3cn(CCSC(=N)N)c4ccccc34)C(=O)NC2=O)c2ccccc21	1880 nM
Cc1nc2cc(-n3c(-c4ccc(F)cc4)nc4ccccc4c3=O)ccc2n1Cc1ccccc1	1940 nM
CC(=O)OC[C@]1(C)C=C2C(=O)[C@](C)(O)C3(CC3)C(C)=C2[C@H]1OC(=O)N(C)CCN(C)C(=O)OC(C)(C)C	668 nM
Cc1cc(Nc2cccc(F)c2)nc(NCc2ccccc2)n1	8450 nM

Next, consider the following molecule.
Please fill in: GI50 reported for COc1ccc(/C=C/C(=O)c2cccc(B(O)O)c2)cc1O = 3330 nM

====

- Test system: MOLT-4 leukemia
- experimental-details: NCI tumour cell line growth inhibition, 48 h
Binary call on TGI: satisfied from 7 µM upward, not satisfied beneath that.

Worked examples follow.
CC(C)=CC1CCc2ccccc2N1S(=O)(=O)c1ccc(C)cc1 (stereo unspecified)	satisfied
O[N+]1=CC=CCC1=S.On1ccccc1=S.[Zn]	not satisfied
Cc1ccc(O)c(N=Nc2ccc(S(=O)(=O)O)cc2)n1	satisfied
Cc1cccc(C)c1NC(=O)CCC(=O)CC(=O)C(C)C	satisfied
COc1c2c(cc3nc4ccccc4nc13)CC[C@H](NC(C)=O)c1cc(=O)c(SC)ccc1-2	satisfied

For this molecule, is measured TGI 7 µM or higher? COc1ccc(NC(=O)C2C(=O)N(c3ccc(OC)cc3)C(=O)/C2=N\N)cc1 (stereo unspecified)
satisfied

For this molecule, is measured TGI 7 µM or higher? c1ccc2c(c1)SC1=Nc3sc4ccccc4[n+]3CN12
satisfied

For this molecule, is measured TGI 7 µM or higher? COc1ccc(/C=C/C(=O)c2cccc(B(O)O)c2)cc1O
satisfied

For this molecule, is measured TGI 7 µM or higher? COc1ccc(P2(=S)Oc3ccc(C(c4ccccc4)(c4ccccc4)c4ccccc4)cc3O2)cc1 (stereo unspecified)
satisfied

For this molecule, is measured TGI 7 µM or higher? FC(F)(F)c1cccc(Nc2nc3ccccc3nc2Nc2cccc(C(F)(F)F)c2)c1
not satisfied

For this molecule, is measured TGI 7 µM or higher? c1cc(-c2ccsc2-c2ccsc2)cs1
satisfied

====

- System: SF-268 CNS
- experimental-details: NCI tumour cell line growth inhibition, 48 h
readout-kind: TGI (µM)
Unit µM implied. Number only.

O=C(C[Si](CC(=O)c1cccc(C(F)(F)F)c1)CC(=O)c1cccc(C(F)(F)F)c1)c1cccc(C(F)(F)F)c1	13.9
CC1=C(C(=O)CC(=O)C(=O)Nc2ccccc2C(F)(F)F)Sc2ccccc2N1	71.4
CN(C)CCNc1ccc(NCCN(C)C)c2c1C(=O)c1ncsc1C2=O	39.3

Known value: SF-268 CNS TGI of the molecule NC(=O)N/N=C\c1ccccc1OCc1cccc(COc2ccccc2/C=N\NC(N)=O)n1 equals 88.6
